Assay: Pharmacokinetics of C6 in mice (IV, SC, oral)
Details: mouse, plasma, iv, 4 mg/kg
quantityMeasured: Cmax

Inquiry: Answer with the recorded Cmax for the compound listed here: CC[C@H](C)[C@H](NC(=O)[C@@H]1CC[C@H](c2ccc(C)o2)N1C(=O)[C@@H](NC(=O)[C@H](C)NC)C(C)C)C(=O)NC(c1ccccc1)c1ccccc1 [Compound 6]
Reply text: 10200 ng/mL

* * *

Experiment: in vivo
Settings: mouse, iv, 4 mg/kg
quantityMeasured: half-life (min)
Kindly answer with a numeric value in min, unit omitted.

Inquiry: Answer with the recorded half-life for the molecule listed here: CC[C@H](C)[C@H](NC(=O)[C@@H]1CC[C@H](c2ccc(C)o2)N1C(=O)[C@@H](NC(=O)[C@H](C)NC)C(C)C)C(=O)NC(c1ccccc1)c1ccccc1 [Compound 6]
Reply text: 11.4
